Target: Tyrosine-protein kinase ABL1 (Homo sapiens, UniProt P00519)
Sequence (P00519 whole entry): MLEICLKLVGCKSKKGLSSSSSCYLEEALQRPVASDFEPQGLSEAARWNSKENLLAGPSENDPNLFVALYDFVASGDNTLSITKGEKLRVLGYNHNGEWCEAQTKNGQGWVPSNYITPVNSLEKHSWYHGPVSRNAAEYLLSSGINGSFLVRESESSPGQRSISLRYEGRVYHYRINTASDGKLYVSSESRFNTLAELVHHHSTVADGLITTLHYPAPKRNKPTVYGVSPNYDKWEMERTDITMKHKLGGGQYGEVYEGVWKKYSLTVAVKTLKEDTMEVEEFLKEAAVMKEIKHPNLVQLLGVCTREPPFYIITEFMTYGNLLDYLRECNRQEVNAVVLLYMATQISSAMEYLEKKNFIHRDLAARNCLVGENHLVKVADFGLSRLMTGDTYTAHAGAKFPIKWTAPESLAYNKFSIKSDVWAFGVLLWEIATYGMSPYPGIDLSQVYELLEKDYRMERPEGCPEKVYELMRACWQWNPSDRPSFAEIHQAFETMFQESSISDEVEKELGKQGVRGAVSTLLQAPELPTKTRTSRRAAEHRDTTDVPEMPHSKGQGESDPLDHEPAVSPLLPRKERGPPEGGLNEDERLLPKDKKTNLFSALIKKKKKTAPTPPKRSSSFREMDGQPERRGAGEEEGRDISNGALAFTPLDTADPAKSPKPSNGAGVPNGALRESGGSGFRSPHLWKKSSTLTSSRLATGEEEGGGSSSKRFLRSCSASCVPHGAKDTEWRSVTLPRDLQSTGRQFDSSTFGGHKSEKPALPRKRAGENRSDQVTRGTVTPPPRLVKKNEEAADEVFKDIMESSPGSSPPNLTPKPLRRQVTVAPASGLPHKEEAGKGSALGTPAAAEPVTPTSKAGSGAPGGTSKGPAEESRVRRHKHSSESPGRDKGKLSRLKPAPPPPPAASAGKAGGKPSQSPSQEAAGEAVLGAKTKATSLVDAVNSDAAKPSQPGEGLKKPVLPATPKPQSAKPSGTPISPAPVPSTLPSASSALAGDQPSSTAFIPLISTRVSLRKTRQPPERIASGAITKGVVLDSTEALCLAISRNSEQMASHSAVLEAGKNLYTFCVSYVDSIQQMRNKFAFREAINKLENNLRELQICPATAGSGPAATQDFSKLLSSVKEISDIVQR
quantityName: pKd
One number for each entry, as −log10 of the molar value.

Enquiry: Any idea what pKd was measured for CC(Nc1nc(-c2cccc(N(C)C)c2)cnc1N)c1ccccc1 (racemic) ?
Return: 5.28

###

Kindly state IC50 for each of the entries shown.
Test system: KM12
Experiment: cells
Conditions: Homo sapiens, KM12, 72 h
Description: Cytotoxicity against human KM12 cells assessed as inhibition of cell viability incubated for 72 hrs by resazurin based analysis
Give bare numbers, in nM.

compound="CC(Nc1nc(-c2cc(C(F)(F)F)cc(C(F)(F)F)c2)cnc1N)c1ccccc1 (racemic)" quantityname=IC50 recordedvalue=5300

Would you mind listing IC50 for each of the following compounds?
1. O=C(Nc1cnn2ccc(N3CCC[C@@H]3c3cc(F)ccc3F)nc12)N1CC[C@H](O)C1
2. CN(C)c1cccc(-c2cnc(N)c(NCc3cccnc3)n2)c1

Return:
[3.8, 3700]

The origin of these recorded values is ChEMBL document CHEMBL6134888.
